assay: M. tuberculosis growth inhibition, HTS (AID 449762);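 further: bacterial growth assessed after seven days of incubation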; conditions: M. tuberculosis H37Rv growth inhibition, 7H9 media; at 25 µM; active compounds read high
Screen size: about 330,000 compounds; about 1,900 (0.58%) were called active. About 4% were inconclusive and are not listed. The list is a sample of the results. Entries with a potency or affinity are not part of this list.
observed.property: inhibition (%)
Just the number please, in %, no unit attached.

The following molecules have reported results that may help.
molecule=COc1ccc(OC)c(NC(=O)C2CCN(Cc3cnn(-c4ccccc4)c3-n3cccc3)CC2)c1 experimental_result=61.3
molecule="CCC(CO)(C(=O)OC1C[N+]2(C)CCC1CC2)c1ccccc1 (stereo not given)" experimental_result=-13.2
molecule=Cc1ccc2c(c1)c(C1=NC(=S)NC1=O)c(O)n2C experimental_result=-2.95

Incoming: State the recorded inhibition for this entry: CCn1c(SCC(=O)Nc2ccc3c(c2)OCO3)nnc1C(C)C
Outgoing: -4.67

Incoming: State the recorded inhibition for this entry: COc1ccc2cc1Oc1ccc(cc1)C[C@H]1c3cc(c(OC)cc3CCN1C)Oc1c(OC)c(OC)cc3c1[C@H](C2)N(C)CC3
Outgoing: -2.74

Incoming: State the recorded inhibition for this entry: Cn1c(O)c(C2=c3ccccc3=NC2=O)[nH]c1=S
Outgoing: 37

* * *

assay: M. tuberculosis growth inhibition, HTS (AID 449762);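 further: bacterial growth assessed after seven days of incubation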; conditions: M. tuberculosis H37Rv growth inhibition, 7H9 media; at 25 µM; active compounds read high
Out of some 330,000 compounds screened, about 1,900 (0.58%) were called active. Inconclusive results (about 4%) are left out. Only a sample is shown. Measured potencies and affinities stand elsewhere.
observed.property: inhibition (%)
Just the number please, in %, no unit attached.

The following compounds have reported results that may help.
compound="OC(COC(c1ccccc1)c1ccccc1)CN1CCc2ccccc2C1 (stereo not drawn)" experimental_result=4.67
compound=Cc1nc(CCNC(=O)c2cc(COc3ccc(F)cc3Cl)on2)sc1C experimental_result=12.2

Incoming: State the recorded inhibition for this entry: COc1ccccc1-c1nnc(SCC(=O)Nc2ccc(Cl)cc2Cl)o1
Outgoing: -3.38

Incoming: State the recorded inhibition for this entry: COc1ccc(/C=N/Nc2ncnc3scc(-c4ccccc4)c23)cc1OC
Outgoing: -0.49

Incoming: State the recorded inhibition for this entry: CCN(CC)C(=O)CSc1nnc(-c2c[nH]c3ccccc23)o1
Outgoing: 1.41

* * *

assay: M. tuberculosis growth inhibition, HTS (AID 449762);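 further: bacterial growth assessed after seven days of incubation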; details: M. tuberculosis H37Rv growth inhibition, 7H9 media; at 25 µM; active compounds read high
In all, about 330,000 compounds went through this assay and about 1,900 (0.58%) were called active. Not shown: some 4% with an inconclusive outcome. The list is a sample of the results. Potency and affinity values are given separately.
observed.property: inhibition (%)
Just the number please, in %, no unit attached.

Incoming: State the recorded inhibition for this entry: N#Cc1ccc(Cn2ccnc2C(=O)Nc2ccccc2)cc1
Outgoing: 0.04

Incoming: State the recorded inhibition for this entry: Cc1cc(C)c(NS(=O)(=O)c2ccc(Cl)c(C(=O)O)c2)c(C)c1
Outgoing: -6.92

* * *

experiment: M. tuberculosis growth inhibition, HTS (AID 449762);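 further: bacterial growth assessed after seven days of incubation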; conditions: M. tuberculosis H37Rv growth inhibition, 7H9 media; at 25 µM; active compounds read high
The whole screen tested about 330,000 compounds, of which about 1,900 (0.58%) were called active. Another 4% or so got no clear call; they are omitted. A selection follows. Results with a measured potency or affinity are listed apart.
# inhibition per record follows
Just the number please, in %, no unit attached.

compound=NSc1nc(N)c2nc(-c3ccccc3)c(-c3ccccc3)nc2n1 observed_property=inhibition reading_unit=% experimental_result=7.97
compound=COc1cccc(NC(=O)CSc2nc(O)c(C)c(=O)n2-c2ccc(C)cc2)c1 observed_property=inhibition reading_unit=% experimental_result=-11.9
compound=Nc1nc(N)c2nc(-c3ccccc3)c(N)nc2n1 observed_property=inhibition reading_unit=% experimental_result=16.7
compound="CCC(COC(=O)Nc1ccccc1)NC(=O)OC(C)C (centres undefined)" observed_property=inhibition reading_unit=% experimental_result=-6.07
compound=Cc1c(CN2CCC(CO)(Cc3ccccc3)CC2)c2ccccc2n1C observed_property=inhibition reading_unit=% experimental_result=-7.19

Incoming: State the recorded inhibition for this entry: O=C1CN(C(=O)COC(=O)CCC(=O)c2ccc(F)cc2)c2ccccc2N1
Outgoing: -6.63

Incoming: State the recorded inhibition for this entry: COc1ccc(-c2c(-c3ccccc3OC)sc3ccccc23)cc1OC
Outgoing: 11.5

Incoming: State the recorded inhibition for this entry: COc1ccc2cc(C#N)c(N3CCOCC3)nc2c1
Outgoing: 3.82

* * *

assay: M. tuberculosis growth inhibition, HTS (AID 449762);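 further: bacterial growth assessed after seven days of incubation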; conditions: M. tuberculosis H37Rv growth inhibition, 7H9 media; at 25 µM; active compounds read high
In all, about 330,000 compounds went through this assay and about 1,900 (0.58%) were called active. About 4% were inconclusive and are not listed. These entries were drawn from the full list. Measured potencies and affinities stand elsewhere.
observed.property: inhibition (%)
Just the number please, in %, no unit attached.

The following compounds have reported results that may help.
compound=Cc1ccc(CNC(=S)Nc2ccc(C)c([N+](=O)[O-])c2)cc1 experimental_result=1.67
compound="CC(CCc1ccccc1)NC(=O)CCNC(=O)c1ccccc1Cl (stereo not given)" experimental_result=0.74
compound=O=C(COC(=O)c1ccccc1)Nc1cc(S(=O)(=O)N2CCCCCC2)ccc1Cl experimental_result=-13
compound="Cc1ccc(NC(=S)N/N=C2\\CCCCC2C)cc1 (stereo not given)" experimental_result=5.06
compound="CCC(C)NC(=O)c1cn(-c2cccc(OC)c2)c(=O)c2ccccc12 (stereo not given)" experimental_result=4.02
compound=COc1cc(SC)ccc1C(=O)NCCOc1ccc(Cl)cc1 experimental_result=64.9
compound="COc1ccc(C2/C=C\\CN(C(=O)C3CCCC3)[C@H](Cc3ccccc3)C(=O)N2Cc2ccc(F)cc2)cc1 (stereo not given in full)" experimental_result=5.26
compound=CNc1nc(C)nc(-n2nc(C)cc2C)n1 experimental_result=-0.69

Incoming: State the recorded inhibition for this entry: CCN(C(=O)COc1cc(OC)ccc1C(C)=O)C1CCS(=O)(=O)C1 (stereo not given)
Outgoing: 0.77

Incoming: State the recorded inhibition for this entry: CCOC(=O)c1cc2c(ccc3ccccc32)oc1=O
Outgoing: 52.8

Incoming: State the recorded inhibition for this entry: Fc1ccc(NC(=S)Nc2cccc(Cl)c2)cc1
Outgoing: 21.8

* * *

assay: M. tuberculosis growth inhibition, HTS (AID 449762);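 further: bacterial growth assessed after seven days of incubation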; settings: M. tuberculosis H37Rv growth inhibition, 7H9 media; at 25 µM; active compounds read high
Screen size: about 330,000 compounds; about 1,900 (0.58%) were called active. Roughly 4% stayed inconclusive and do not appear here. A selection follows. Potency and affinity values are given separately.
# inhibition per record follows
Just the number please, in %, no unit attached.

The following molecules have reported results that may help.
molecule=O=C(N=Nc1c(O)n(Cc2ccccc2)c2ccccc12)c1ccc(O)cc1 observed_property=inhibition experimental_result=8.8
molecule=COC(=O)CCC(=O)Nc1cccc(Br)c1 observed_property=inhibition experimental_result=-7.91
molecule="Cc1ccccc1NC(=S)N1CCCC(c2nc3ccccc3[nH]2)C1 (centres undefined)" observed_property=inhibition experimental_result=0
molecule=COc1ccc(-c2onc3ccc(C(=O)/C=C/N(C)C)cc23)cc1 observed_property=inhibition experimental_result=6.78

Now look at this entry.
Incoming: State the recorded inhibition for this entry: Clc1ccc(Cl)c(OCCCCNCc2ccccc2)c1
Outgoing: 6.87

* * *

assay: M. tuberculosis growth inhibition, HTS (AID 449762);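 further: bacterial growth assessed after seven days of incubation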; conditions: M. tuberculosis H37Rv growth inhibition, 7H9 media; at 25 µM; active compounds read high
The whole screen tested about 330,000 compounds, of which about 1,900 (0.58%) were called active. Not shown: some 4% with an inconclusive outcome. Only a sample is shown. Measured potencies and affinities stand elsewhere.
observed.property: inhibition (%)
Just the number please, in %, no unit attached.

compound=CCc1cc2c(=O)n(CC(=O)NC3CCCCC3)cnc2s1 experimental_result=-19.5
compound=CC(=O)c1cccc(S(=O)(=O)NCCC(=O)NC2CCCCCC2)c1 experimental_result=2.95
compound="COc1ccc(C2CC(c3ccc(Cl)cc3)n3nc(N)nc3N2)cc1 (stereo not given)" experimental_result=1.53

Incoming: State the recorded inhibition for this entry: Cc1ccc(/C=C2/SC(=S)N(CCC(=O)N3CCOCC3)C2=O)cc1
Outgoing: -5.59

Incoming: State the recorded inhibition for this entry: O=C1CN(C(=O)OCc2ccccc2)c2ccccc2N1
Outgoing: -1.7

Incoming: State the recorded inhibition for this entry: O=C1O[C@@H]([C@H](O)CO)C(O)=C1O
Outgoing: -0.84

Incoming: State the recorded inhibition for this entry: O=C(O)c1cccc(Nc2ccc([N+](=O)[O-])c3nonc23)c1
Outgoing: 2.67

Incoming: State the recorded inhibition for this entry: COc1ccc(C(=O)Nc2cc3c(cc2Cl)OCCCO3)cc1
Outgoing: 5.96

Incoming: State the recorded inhibition for this entry: COCCN=c1scc(-c2ccc3c(c2)NC(=O)CO3)n1/N=C(\C)c1ccc(O)cc1
Outgoing: 6.92

Incoming: State the recorded inhibition for this entry: CC(=O)Nc1ccc(S(=O)(=O)NCc2ccc(C(=O)NCCCN3CCC(C)CC3)cc2)cc1
Outgoing: 2.04

Incoming: State the recorded inhibition for this entry: C[C@H](NC(N)=O)C(=O)Nc1ccc(OCc2ccccc2)cc1
Outgoing: 2.2

Incoming: State the recorded inhibition for this entry: N#Cc1ccc(C23OCCN2CCn2c3c3ccccc3[n+]2[O-])cc1 (stereo not given)
Outgoing: 21.6
